system: HOP-62 NSCLC; assay: NCI tumour cell line growth inhibition, 48 h
measured_attribute: TGI

compound: O=C(CN(Cc1ccccc1)Cc1ccccc1)N1CCc2c([nH]c3ccccc23)C1c1cccnc1 (stereo not drawn)
TGI: > 100 µM
--
compound: O=C1Nc2ccc(O)cc2/C1=C\c1ccncc1
TGI: 56.4 µM
--
compound: CSCCC(NC(=O)Cc1ccc(C(=O)c2ccccc2)cc1)C(=O)N1CCN(CCCCN2c3ccccc3Sc3cc(N=[N+]=[N-])ccc32)CC1 (stereo not drawn)
TGI: > 100 µM
--
compound: Cc1ccc(N=NN(C)C(C)C(O)Cc2ccccc2)cc1 (stereo not drawn)
TGI: > 100 µM
--
compound: O=c1ccc2c(Cl)cccc2o1
TGI: > 100 µM
--
compound: COc1cccc(CCNC(=O)CC(c2ccccc2)(c2ccccc2)c2ccccc2)c1
TGI: > 100 µM
--
compound: Cc1ccc(NC(=O)CC(=O)N2N=C(N3CCCCC3)CC2c2ccccc2)cc1 (stereo not drawn)
TGI: > 100 µM
--
compound: Cc1cccc2c(N)c3cccc(C(=O)NCC[N+](C)(C)Cc4ccc(S(C)(=O)=O)cc4)c3nc12
TGI: > 100 µM

input: Using the record for COc1ccc2nc3cc([N+](=O)[O-])ccc3c(NNc3ccc([N+](=O)[O-])cc3)c2c1 , state its measured TGI.
output: > 100 µM

input: Using the record for CC(=O)c1cc2c(s1)C(=O)c1ccsc1C2=O , state its measured TGI.
output: 0.916 µM

input: Using the record for N.N.N.N.N.N#Cc1nn[n-]n1.[Cl-].[Co+3] , state its measured TGI.
output: > 100 µM

input: Using the record for O=[N+]([O-])c1cnc(N(CCO)CCO)s1 , state its measured TGI.
output: > 100 µM

input: Using the record for CC(C)=CC1C(COC(=O)c2ccccc2Cl)C1(C)C (stereo not drawn) , state its measured TGI.
output: > 100 µM

* * *

In this section, each of the compounds is paired with its reported TGI.
tested on: CCRF-CEM leukemia; assay: NCI tumour cell line growth inhibition, 48 h

compound: CC(=O)Nc1c2sscc-2n(C)c1=O
TGI: 1.51 µM

input: Using the record for COc1ccc(C[n+]2cccc(O)c2)cc1 , state its measured TGI.
output: > 100 µM

input: Using the record for O=C1NC(=S)N/C1=C\c1ccc(Cl)cc1 , state its measured TGI.
output: > 100 µM

input: Using the record for CC(=O)NNc1nc(C)c(C(/C=C/c2ccc(Cl)cc2)=N\N=C(N)N)s1 , state its measured TGI.
output: > 100 µM

input: Using the record for Nc1nc(=S)c2ncn(C3OC(CO)C(O)C3O)c2[nH]1 (stereo unspecified) , state its measured TGI.
output: > 68.2 µM

input: Using the record for COc1ccc(C(OC(=O)[C@H](O[Si](C)(C)C(C)(C)C)[C@@H](NC(=O)c2ccccc2)c2ccccc2)c2ccc(OC)cc2)cc1 , state its measured TGI.
output: > 100 µM

input: Using the record for O=c1c2ccccc2nc2n1CCc1c-2[nH]c2cc3c(cc12)OCO3 , state its measured TGI.
output: > 25 µM

input: Using the record for CCCCC(O)(c1ccccc1)C(O)(c1ccccc1)c1c(F)c(F)c(F)c(F)c1F (stereo unspecified) , state its measured TGI.
output: 88.7 µM

input: Using the record for CCCC(=O)N(C)N=Nc1ccc(C(=O)OCC)cc1 , state its measured TGI.
output: > 100 µM

input: Using the record for O=C1N=CN=C2C=CC(Cl)=C(I)C12 (stereo unspecified) , state its measured TGI.
output: > 100 µM

input: Using the record for COc1ccc(CN2C(=O)/C(=C\C(=O)c3ccc(OCCN4CCCC4)cc3)c3ccccc32)cc1 , state its measured TGI.
output: 32.2 µM

* * *

system: TK-10 renal; assay: NCI tumour cell line growth inhibition, 48 h; in the data active = GI50 below about 0.43 µM; inactive = the rest
Select the matching outcome among active, inactive

Worked cases, answers included:
molecule: C=C[C@H]1CN2CCc3c([nH]c4c([C@@H]5CCCN5C)c(O)ccc34)[C@@H]2C[C@@H]1C[C@H]1c2[nH]c3ccccc3c2CCN1C
label_value: active
--
molecule: C=C1C[C@@H](O)[C@@H](Br)C(C)(C)[C@]12CCC(C)(Br)C(Cl)C2 (stereo not given in full)
label_value: inactive
--
molecule: O=C(COc1cccc(/C=C2\COc3ccccc3C2=O)c1)c1ccccc1
label_value: inactive
--
molecule: Nc1nc(=S)c2ncn(C3OC(CO)C(O)C3O)c2[nH]1 (stereo not given)
label_value: inactive

Now look at this entry.
input: Hello, I am checking results. What call was entered for CCC[CH2][Sn]1([CH2]CCC)[O]C(=O)CN=C(C)c2ccccc2[O]1 ?
output: inactive

* * *

tested on: SW-620 colon; assay: NCI tumour cell line growth inhibition, 48 h
In this section, each of the molecules is paired with its reported TGI.

input: Using the record for CCCCC(O)(c1ccccc1)C(O)(c1ccccc1)c1c(F)c(F)c(F)c(F)c1F (centres undefined) , state its measured TGI.
output: 61.8 µM

* * *

test system: CCRF-CEM leukemia; experiment: NCI tumour cell line growth inhibition, 48 h
In this section, each of the compounds is paired with its reported TGI.

Answered examples (3):
compound: CC(C)C(=O)Nc1ccc(-c2nc(-c3cccc(OCCN4CCOCC4)c3)c(-c3ccnc(Br)c3)[nH]2)cc1
measured_attribute: TGI
observed_value: > 100 µM
//
compound: CN1CN(c2ccccc2)C2(CCN(C3Nc4ccccc4O3)CC2)C1=O (stereo not given)
measured_attribute: TGI
observed_value: 57.6 µM
//
compound: Cc1cc(O[C@@H]2O[C@@H](C)[C@H](O)[C@@H](O)[C@H]2O)c2c3c(c(O[C@@H]4O[C@@H](C)[C@H](O)[C@@H](O)[C@H]4O)cc2c1)C(=O)c1c(O)cccc1C3=O
measured_attribute: TGI
observed_value: > 30 µM

input: Using the record for O=C(COc1cccc(/C=C2\COc3ccccc3C2=O)c1)c1ccccc1 , state its measured TGI.
output: 7.62 µM

input: Using the record for COC(C)(C)[C@@H]1CCCN1C1=C(C)C(=O)OC1 , state its measured TGI.
output: > 100 µM

input: Using the record for Brc1c2c(c(Br)c3nsnc13)N=S=N2 , state its measured TGI.
output: 5.2 µM

input: Using the record for Cc1ccc(N=NN(C)C(C)C(O)Cc2ccccc2)cc1 (stereo not given) , state its measured TGI.
output: > 100 µM

* * *

In this section, each of the compounds is paired with its reported TGI.
tested on: NCI-H522 lung; assay: NCI tumour cell line growth inhibition, 48 h

Answered examples (3):
compound: CCSc1nc(NC(C)c2ccccc2)c2cnn(CO)c2n1 (centres undefined)
TGI: > 100000 nM
--
compound: COc1ccc2nc3cc(Cl)ccc3c(NCCNCC(O)CO)c2c1 (centres undefined)
TGI: 3930 nM
--
compound: CSC1=C(SC)C(=O)c2cn(C)c(=O)cc2C1=O
TGI: 2190 nM

input: Using the record for CC(=O)Nc1c2sscc-2n(C)c1=O , state its measured TGI.
output: 2650 nM

* * *

In this section, each of the compounds is paired with its reported TGI.
tested on: U251 CNS; assay: NCI tumour cell line growth inhibition, 48 h

compound: O=C(CCc1ccc(O)c(O)c1)NCCc1ccccc1
observed_value: > 100 µM
//
compound: Clc1ccc(C2CC(c3cccc(Nc4ccncc4)c3)=NN2c2ccccc2)cc1 (stereo not given)
observed_value: 3.81 µM
//
compound: CC(C)C(=O)Nc1ccc(-c2nc(-c3cccc(OCCN4CCOCC4)c3)c(-c3ccnc(Br)c3)[nH]2)cc1
observed_value: 14.5 µM
//
compound: COc1cc(N2CCN(C(C)C)CC2)ccc1Nc1nc(Nc2ccc(F)cc2C(=O)NCC(O)CO)c2cc[nH]c2n1 (stereo not given)
observed_value: > 25 µM

Then there is this compound:
input: Using the record for Nc1nc(=S)c2ncn(C3OC(CO)C(O)C3O)c2[nH]1 (stereo not given) , state its measured TGI.
output: > 100 µM

* * *

In this section, each of the compounds is paired with its reported TGI.
tested on: HCT-15 colon; assay: NCI tumour cell line growth inhibition, 48 h

input: Using the record for COc1ccc2nc3cc([N+](=O)[O-])ccc3c(NNc3ccc([N+](=O)[O-])cc3)c2c1 , state its measured TGI.
output: > 100 µM

input: Using the record for COc1ccc(C2=NN(C=O)C(c3ccc(OS(=O)(=O)c4ccc(C)cc4)c(OC)c3)C2)cc1 (centres undefined) , state its measured TGI.
output: > 100 µM

input: Using the record for Cc1ccc(C(=O)O)c(/C=C2\Cc3cc(C)cc(C)c3C2=O)c1 , state its measured TGI.
output: > 100 µM

input: Using the record for N#CC(NNC(=O)c1c(Cl)c(Cl)c(Cl)c(Cl)c1-c1nc2ccc(C(=O)c3ccccc3)cc2[nH]1)c1ccccc1 (centres undefined) , state its measured TGI.
output: > 100 µM

input: Using the record for COC(=O)[C@H](C)NC(=O)C1(CNC(=O)[C@H](C)NC(=O)OC(C)(C)C)Cc2ccccc2-c2ccccc2C1 , state its measured TGI.
output: 31.1 µM

input: Using the record for O=C1Nc2ccc(O)cc2/C1=C\c1ccncc1 , state its measured TGI.
output: 39 µM

input: Using the record for COc1ccc(-c2[nH]c(-c3ccc(OC)cc3)c(-c3ccccn3)c2-c2ccccn2)cc1 , state its measured TGI.
output: > 100 µM

input: Using the record for CC[O-].CC[O-].COc1ccc(C(=O)[CH-]C(C)=O)cc1OC.COc1ccc(C(=O)[CH-]C(C)=O)cc1OC.[Ti+4] , state its measured TGI.
output: > 100 µM

input: Using the record for CCOC(=O)Nc1ccc2nc(N3CCCCCC3)sc2c1 , state its measured TGI.
output: > 46.2 µM
